Reported log10 of IC50 by item:
# assayed-target: CDK2 (human) (UniProt P24941)
# assay-protocol: Enzyme Assay
readout-name: log10 of IC50 (log10 of the value in nM)

compound="Cn1cc(-c2cnn3c(N)cc(C4CCC(C(=O)O)NC4)nc23)cn1 (stereo unspecified)" assayed_target="CDK2 (human) (UniProt P24941)" quantitative_result=4.48
compound=CC[C@H](CO)Nc1cc(NCc2ccccc2)c2ncn(C(C)C)c2n1 assayed_target="CDK2 (human) (UniProt P24941)" quantitative_result=2.48
compound=O=c1[nH]nc(-c2ccncc2)cc1-c1nc2ccc(Cl)cc2[nH]1 assayed_target="CDK2 (human) (UniProt P24941)" quantitative_result=1.41
compound="CC(=O)NCCNc1nc(Nc2ccc(S(C)=NS(=O)(=O)c3ccc(C)cc3)cc2)ncc1Br (stereo unspecified)" assayed_target="CDK2 (human) (UniProt P24941)" quantitative_result=3.00
compound="COc1cccc(CNc2nc(NC3CCC(N)CC3)nc3c2ncn3C(C)C)c1O (stereo unspecified)" assayed_target="CDK2 (human) (UniProt P24941)" quantitative_result=1.30
compound=Cn1cc(-c2cnc3c(Nc4ccc5ncccc5c4)nccn23)cn1 assayed_target="CDK2 (human) (UniProt P24941)" quantitative_result=4.70
